Data credit: patent US4735949A

# System: Streptococcus pyogenes C-203
Would you kindly list MIC for each of these molecules?
Give bare numbers, in µg/mL.

Could you report MIC for every entry in the following list?
1. NCC1CN(c2c(F)cc3c(=O)c(C(=O)O)cn(C4CC4)c3c2F)CC1c1ccccc1 (stereo not shown)
2. NC1(c2ccccc2)CCN(c2c(F)cc3c(=O)c(C(=O)O)cn(C4CC4)c3c2F)C1 (stereo not shown)
3. NC1CN(c2c(F)cc3c(=O)c(C(=O)O)cn(C4CC4)c3c2F)CC1c1ccccc1 (stereo not shown)

1. 0.013
2. 0.05
3. 0.1

Answer with the recorded MIC for the molecule listed here: O=C(O)c1cn(C2CC2)c2c(F)c(N3CCC(O)(c4ccccc4)C3)c(F)cc2c1=O (stereo not shown) 0.05

###

# Test system: Staphylococcus aureus H 228
Measurement label: MIC (ng/mL)
Numbers only, in ng/mL.

[[record]]
compound = "NC1(c2ccccc2)CCN(c2c(F)cc3c(=O)c(C(=O)O)cn(C4CC4)c3c2F)C1 (stereo not shown) [Example 1]"
system = "Staphylococcus aureus H 228"
measurement_label = "MIC"
result = 6

[[record]]
compound = "O=C(O)c1cn(C2CC2)c2c(F)c(N3CCC(O)(c4ccccc4)C3)c(F)cc2c1=O (stereo not shown) [Example 4]"
system = "Staphylococcus aureus H 228"
measurement_label = "MIC"
result = 3

[[record]]
compound = "NC1CN(c2c(F)cc3c(=O)c(C(=O)O)cn(C4CC4)c3c2F)CC1c1ccccc1 (stereo not shown) [Example 3]"
system = "Staphylococcus aureus H 228"
measurement_label = "MIC"
result = 50


Next compound, MIC to be filled in.
Answer with the recorded MIC for the compound listed here: NCC1CN(c2c(F)cc3c(=O)c(C(=O)O)cn(C4CC4)c3c2F)CC1c1ccccc1 (stereo not shown) [Example 2] 13
